The entries below pair compounds with pIC50 values for USP30 (Homo sapiens (Human), UniProt Q70CQ3), as found in several publications.
pIC50: −log10 of the molar value.

Some compounds with known pIC50 results, for comparison:
{"compound": "N#CN1CCC(c2n[nH]c(-c3cc(-c4ccccc4)ccn3)n2)C1 (centres unmarked)", "value-measured": "6.00 to 7.00"}
{"compound": "CN1CCN(C(=O)c2ccc(-c3ccc4c(c3)CCN4C(=O)C3(F)CCN(C#N)C3)cc2)CC1 (centres unmarked)", "value-measured": "5.00 to 6.00"}
{"compound": "N#Cc1cccc(-c2ccnc(NC(=O)C3(F)CCCN(C#N)C3)c2)c1 (racemic)", "value-measured": "5.00 to 6.00"}
{"compound": "N#CN1CCC(F)(C(=O)N2CCc3cc(-c4ccccc4)ccc32)C1 (centres unmarked)", "value-measured": "6.00 to 7.00"}
{"compound": "Cc1cc(-c2ccc(C(=O)N[C@@H]3CCN(C#N)C3)c(F)c2)nc(C)n1", "value-measured": "> 7.00"}

Input: Requested read-out pIC50, target or system USP30 (Homo sapiens (Human), UniProt Q70CQ3), entry `N#CN1CC[C@@H](C(=O)N2CCc3cc(-c4ccccc4)ccc32)C1`
Output: 5.00 to 6.00

Input: Can you check `Cn1cc(-c2ccc3c(c2)c(F)c(C(=O)N[C@@H]2CCN(C#N)C2)n3C)cn1` next?
Output: > 7.00

Input: What would you report for `N#CN1CC[C@@H](NC(=O)N2CCc3c([nH]c4ccccc34)C2)C1` ?
Output: 6.00 to 7.00

----------
Compiled notes: published pIC50 values involving UniProt:Q70CQ3.
pIC50: −log10 of the molar value.

The examples below pair each entry with its known result.
{"molecule": "N#Cc1cccc(-c2ccc3nc(C4CCN(C#N)C4)[nH]c3c2)c1 (stereo not drawn)", "pIC50": "6.00 to 7.00"}
{"molecule": "N#CN1CCC(c2nnc(-c3ccc4nccn4c3)[nH]2)C1 (stereo not drawn)", "pIC50": "5.00 to 6.00"}
{"molecule": "N#Cc1ccnc(N2CCC(NC(=O)[C@H]3CN(C#N)CCO3)C2)c1 (stereo partly drawn)", "pIC50": "5.00 to 6.00"}
{"molecule": "N#Cc1cccc(-n2cc(NC(=O)[C@@]3(F)CCCN(C#N)C3)nn2)c1", "pIC50": "6.00 to 7.00"}
{"molecule": "N#Cc1cccc(-c2ccc3nc([C@@H]4CCCN4C#N)oc3c2)n1", "pIC50": "5.00 to 6.00"}
{"molecule": "Cc1noc(C)c1-c1ccn2c(C3CCN(C#N)C3)cnc2c1 (stereo not drawn)", "pIC50": "5.00 to 6.00"}

Input: # get_value(readout= pIC50, system= UniProt:Q70CQ3) for COc1ccc(-c2cnc3[nH]c(C4CCN(C#N)C4)nc3c2)cn1 (stereo not drawn)
Output: 6.00 to 7.00

Input: Record: `CC(C)(C)NS(=O)(=O)c1cccc2c(NC(=O)[C@H](Cc3ccccc3)NC(=O)c3ccc(O)cc3)cccc12`
Output: < 5.00

Input: Let us now turn to `CCc1cccc(-c2cc(C(=O)NC)cc3c2CCN3C(=O)[C@@H]2CCN(C#N)C2)c1`
Output: 6.00 to 7.00
